Provenance of the data: the supplement of paper PMC7724964

Molecular target: T1, CAPN2 513-700 EF-hand_8 (domain begin residue: 513, domain end residue: 700), P17655
T1 chain: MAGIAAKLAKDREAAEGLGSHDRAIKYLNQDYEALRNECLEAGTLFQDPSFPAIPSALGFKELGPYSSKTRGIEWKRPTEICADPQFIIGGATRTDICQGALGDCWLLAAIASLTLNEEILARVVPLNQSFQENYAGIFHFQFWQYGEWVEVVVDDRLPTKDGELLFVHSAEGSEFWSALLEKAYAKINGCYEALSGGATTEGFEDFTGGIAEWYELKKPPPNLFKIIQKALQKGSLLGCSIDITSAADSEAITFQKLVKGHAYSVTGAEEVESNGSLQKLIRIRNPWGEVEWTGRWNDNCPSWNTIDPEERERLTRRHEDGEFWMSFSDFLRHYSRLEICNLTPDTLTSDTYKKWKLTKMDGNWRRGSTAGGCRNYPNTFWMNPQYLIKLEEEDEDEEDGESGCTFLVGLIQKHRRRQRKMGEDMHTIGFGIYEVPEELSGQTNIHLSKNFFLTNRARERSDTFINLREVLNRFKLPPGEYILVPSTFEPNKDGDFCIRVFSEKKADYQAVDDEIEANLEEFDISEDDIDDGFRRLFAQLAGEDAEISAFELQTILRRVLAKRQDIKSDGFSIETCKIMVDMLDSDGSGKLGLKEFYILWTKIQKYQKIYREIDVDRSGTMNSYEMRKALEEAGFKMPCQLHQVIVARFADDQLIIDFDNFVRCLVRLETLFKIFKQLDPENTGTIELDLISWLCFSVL
Assay: phage ELISA signal ratio (GST-PRM binding over GST background); higher = stronger binding of peptide-phage to the PRM
Below, each entry is listed alongside its reported phage ELISA signal ratio.

binder: ISESQIAQFVMAWMQQ
phage ELISA signal ratio: 22.5

binder: GDWEWVERWLEMHLLE
phage ELISA signal ratio: 12.6

binder: VTVPPWLMEMIMELMQ
phage ELISA signal ratio: 5.99

binder: WDAFVNDFMHEWSTFK
phage ELISA signal ratio: 26.5
